The reader will find reported half-life at 2 μM values listed item by item below.
# Assay Method Text: Stability on keratinocyte cultures
# Format: in vitro ADME, human
# Run Conditions: 2 μM, human neonatal keratinocyte culture, kinetics over 24 hours, LC/MS/MS; read-out: half-life time (t1/2) (converted)
I'd appreciate it if you wrote the number followed by its unit.

INSERT INTO results (molecule, experimental_readout, observed_value) VALUES
  ('Cc1ncc([N+](=O)[O-])n1CCOC(=O)C(C)c1ccc(-c2ccccc2)c(F)c1 (racemic)', 'half-life at 2 μM', '6 h');

Incoming: Kindly indicate its recorded half-life at 2 μM. Item: Cc1ncc([N+](=O)[O-])n1CCOC(=O)[C@@H](C)c1ccc(-c2ccccc2)c(F)c1
Outgoing: 18 h
